# Test system: JCK
# assayMethodText: qHTS profiling for inhibitors of Plasmodium falciparum proliferation (AID 504749); also: nearly all actives have a fitted effect of over 60% in size; also: potency is read from the fitted curve at half-maximal effect
# testConditions: P. falciparum in erythrocytes, SYBR Green DNA, 72 h; series mostly up to 28.7 µM
Inconclusive results are not listed. Activity calls are given as the source filed them. Calls follow the shape of the dose curve; as a rule, active = well fitted inhibition curve with a large enough effect; inconclusive = small, poorly fitted or top-dose-only effect; inactive = flat fitted curve, though single readings scatter.
resultType: Potency

A selection of reference data follows.
[
  {
    "compound": "CC(C)(C)OC(=O)c1ncn2c1[C@@H]1CCCN1C(=O)c1c(Br)cccc1-2",
    "systemName": "JCK",
    "recordedResult": "inactive"
  },
  {
    "compound": "CCC1(c2ccccc2)CCC(=O)NC1=O (configuration not stated)",
    "systemName": "JCK",
    "recordedResult": "inactive"
  },
  {
    "compound": "O=C(O)c1nn(Cc2ccc(Cl)cc2Cl)c2ccccc12",
    "systemName": "JCK",
    "recordedResult": "inactive"
  },
  {
    "compound": "CCC1(CC)C(=O)NC(=O)NC1=O",
    "systemName": "JCK",
    "recordedResult": "inactive"
  },
  {
    "compound": "CNC(=O)Oc1cccc2ccccc12",
    "systemName": "JCK",
    "recordedResult": "inactive"
  }
]

Now consider a different compound.
q: Fill in Potency for record "O=C(CCCN1CCC(n2c(=O)[nH]c3ccccc32)CC1)c1ccc(F)cc1"
a: 3.55 µM (active)

###

# assayMethodText: Cell Viability - LYMP2-011 (AID 969);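 also: cells exposed to compound for 24 hours; nearly all actives have a fitted effect of over 60% in size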
# testConditions: LYMP2-011 lymphoblastoid cells viability; series mostly up to 92.2 µM
Results filed as inconclusive are left out. Active and inactive are the calls of the source. Calls follow the shape of the dose curve; as a rule, active = well fitted cell-killing curve with a large enough effect; inconclusive = small, poorly fitted or top-dose-only effect; inactive = flat fitted curve, though single readings scatter.
Write down one outcome, taken from active, inactive

q: # outcome recorded in this test, key = "O=C(CCl)c1ccc(Cl)cc1Cl"
a: active

q: # outcome recorded in this test, key = "CCCCCCCCCCCC[N+](C)(C)CCOc1ccccc1"
a: active

q: # outcome recorded in this test, key = "CN(C)C(=S)SSC(=S)N(C)C"
a: active

q: # outcome recorded in this test, key = "Oc1c(Br)cc(Br)cc1Br"
a: inactive

###

# assayMethodText: qHTS of pediatric cancer cell lines to identify multiple opportunities for drug repurposing: Primary screen for OHS-50 cells (AID 1347103); also: nearly all actives have a fitted effect of over 40% in size
# testConditions: OHS-50 osteosarcoma viability, CellTiter-Glo luminescence, 48 h; series mostly up to 57.3 µM
Results filed as inconclusive are left out. The source made the active and inactive calls. Calls come from the whole dose curve; as a rule, active = well fitted cell-killing curve with a large enough effect; inconclusive = small, poorly fitted or top-dose-only effect; inactive = no such curve, though single readings can be large or run the other way.

[
  {
    "molecule": "CC(Cc1ccccc1)NCCCCl (stereo not drawn)",
    "outcome": "inactive"
  },
  {
    "molecule": "CCOC(=O)c1cncn1C(C)c1ccccc1 (stereo not drawn)",
    "outcome": "inactive"
  },
  {
    "molecule": "COP(=S)(OC)Oc1ccc(S(N)(=O)=O)cc1",
    "outcome": "inactive"
  }
]

###

# assayMethodText: qHTS assay for measurement of the activity of small molecule inhibitors on Zika virus induced Caspase-3 activity in human astrocytoma cells (AID 1224859)
# testConditions: SNB-19 ZIKV-induced caspase-3/7, luminescence, 6 h; series mostly up to 45.7 µM
# Experimental: National Center for Advancing Translational Sciences [NCATS] Johns Hopkins University School of Medicine […] The medium for SNB-19 cells is composed of RPMI 1640 (ATCC, Cat.# 30-2001), 10% fetal bovine serum (FBS) (GE healthcare Life Sciences, Cat.# SH30071.03), and 1% Pen/Strep (Gibco, Cat.# 15140-122). […] The luminescence intensity of the assay plates was measured using a ViewLux plate reader (PerkinElmer). […]
Calls of active or inactive are those of the source. Calls come from the whole dose curve; as a rule, active = well fitted inhibition curve with a large enough effect; inconclusive = small, poorly fitted or top-dose-only effect; inactive = no such curve, though single readings can be large or run the other way.
resultType: outcome

A selection of reference data follows.
[
  {
    "compound": "COP(=S)(OC)Oc1ccc(Sc2ccc(OP(=S)(OC)OC)cc2)cc1",
    "outcome": "inactive"
  },
  {
    "compound": "CC#C[C@]1(O)CC[C@H]2[C@@H]3C[C@H](C)C4=CC(=O)CC[C@]4(C)[C@H]3CC[C@@]21C",
    "outcome": "inactive"
  },
  {
    "compound": "O=c1[nH]c2cc(Cl)ccc2n1C1CCNCC1",
    "outcome": "inactive"
  },
  {
    "compound": "COC(=O)C1=CCCN(C)C1",
    "outcome": "inactive"
  },
  {
    "compound": "COc1ccc(C(=O)N2CCCC2=O)cc1",
    "outcome": "inactive"
  }
]

q: Fill in outcome for record CCC(OC(C)=O)C(CC(C)NC)(c1ccccc1)c1ccccc1 (centres undefined)
a: inactive

q: Fill in outcome for record "CCC(=O)O[C@H]1CC[C@H]2[C@@H]3CCC4=CC(=O)CC[C@]4(C)[C@H]3CC[C@]12C"
a: inactive

q: Fill in outcome for record "ClCCCN1CCN(c2cccc(Cl)c2)CC1"
a: inactive

q: Fill in outcome for record "CCC(=O)OC1(c2ccccc2)CCN(C)CC1"
a: inactive

q: Fill in outcome for record "CN1CCc2cc(Cl)c(O)cc2[C@H]2c3ccccc3CC[C@@H]21"
a: inactive

q: Fill in outcome for record "CN1C(=O)[C@@H](NC(=O)c2cc3ccccc3[nH]2)N=C(c2ccccc2)c2ccccc21"
a: inactive

q: Fill in outcome for record "Cc1nc2ccccc2c(=O)n1-c1ccccc1Cl"
a: inactive

q: Fill in outcome for record "O=C(N[C@@H]1N=C(c2ccccc2F)c2cccc3c2N(CC3)C1=O)c1cc2ccccc2[nH]1"
a: inactive

###

# testConditions: Ebola virus entry assay, green fluorescence channel
Results with a measured potency or affinity are listed apart.
The label depends only on efficacy: True if it is at least -10%, False if it is smaller.

q: Hello, I need to know if "C[C@H](CCC(=O)O)[C@H]1CC[C@H]2[C@@H]3C(=O)C[C@@H]4CC(=O)CC[C@]4(C)[C@H]3CC(=O)[C@]12C" has measured efficacy not below -10%. Thanks!
a: True

q: Hello, I need to know if "CCCCCCCCCCCCCCC[C@H](O)[C@@H](N)CO" has measured efficacy not below -10%. Thanks!
a: True

q: Hello, I need to know if "COc1ccc(CN2CCNCC2)c(OC)c1OC" has measured efficacy not below -10%. Thanks!
a: True

q: Hello, I need to know if O=C(O)C(Cc1cc(I)c(O)c(I)c1)c1ccccc1 (stereo unspecified) has measured efficacy not below -10%. Thanks!
a: False

q: Hello, I need to know if "O=C(NN1CCCC1)NS(=O)(=O)c1ccc(Cl)cc1" has measured efficacy not below -10%. Thanks!
a: False

q: Hello, I need to know if "COC(=O)[C@@H](N)Cc1ccc(O)c(O)c1" has measured efficacy not below -10%. Thanks!
a: False

###

# System: Es-2
# assayMethodText: Primary qHTS to identify gynecologic anti-cancer compounds using libraries of approved drugs and bioactive compounds (AID 1345084); also: nearly all actives have a fitted effect of over 55% in size
# testConditions: Gynecologic cancer cell panel viability, ATPlite luminescence, 48 h; series mostly up to 57.5 µM
Records with an inconclusive call do not appear. Activity calls are given as the source filed them. The call rests on the fitted dose curve; in most records, active means well fitted cell-killing curve with a large enough effect; inconclusive means small, poorly fitted or top-dose-only effect, or effect the other way; inactive means flat fitted curve, though single readings scatter.
Write down one outcome, taken from active, inactive

q: # outcome recorded in this test, key = CCC1(c2ccccc2)CCC(=O)NC1=O (stereo unspecified)
a: inactive

q: # outcome recorded in this test, key = "Oc1ccc2[nH]cc(CCCCN3CC=C(c4ccccc4)CC3)c2c1"
a: inactive

q: # outcome recorded in this test, key = "CCOC(=O)C(c1c(O)c2ccccc2oc1=O)c1c(O)c2ccccc2oc1=O"
a: inactive

q: # outcome recorded in this test, key = "CCOC(C(=O)OCCN(C)C)(c1ccccc1)c1ccccc1"
a: inactive

q: # outcome recorded in this test, key = "C[C@H](CN1CCOCC1)C(C(=O)N1CCCC1)(c1ccccc1)c1ccccc1"
a: inactive

q: # outcome recorded in this test, key = "C[C@]12C=CC(=O)C=C1CC[C@@H]1[C@@H]2CC[C@@]2(C)[C@H]1CC[C@]2(C)O"
a: inactive

q: # outcome recorded in this test, key = C=CCOC(Cn1ccnc1)c1ccc(Cl)cc1Cl (stereo unspecified)
a: inactive

q: # outcome recorded in this test, key = "CC(C)(O)C(Cl)(Cl)Cl"
a: inactive

q: # outcome recorded in this test, key = "COc1ccc(CN2CCNCC2)c(OC)c1OC"
a: inactive

q: # outcome recorded in this test, key = CN1C2CCC(C)(C)C1CC(OC(=O)C(O)(c1cccs1)c1cccs1)C2 (stereo unspecified)
a: inactive

q: # outcome recorded in this test, key = "O=C(CCCCl)c1ccc(F)cc1"
a: inactive

q: # outcome recorded in this test, key = "Nc1ccc(N)cc1"
a: inactive

q: # outcome recorded in this test, key = "OC(c1ccccc1)(c1ccccc1)C1CCNCC1"
a: inactive

q: # outcome recorded in this test, key = "C[C@]12CC[C@H](O)CC1=CC[C@@H]1[C@@H]2CC[C@]2(C)C(=O)CC[C@@H]12"
a: inactive

q: # outcome recorded in this test, key = Nc1ccccc1C(=O)OCC(O)CO (stereo unspecified)
a: inactive

q: # outcome recorded in this test, key = "CN(C)CCc1c[nH]c2ccc(O)cc12"
a: inactive

q: # outcome recorded in this test, key = "CCc1ccc(C2CCNCC2)cc1"
a: inactive

q: # outcome recorded in this test, key = "CC(C)=C[C@@H]1[C@@H](C(=O)OCc2coc(Cc3ccccc3)c2)C1(C)C"
a: inactive

q: # outcome recorded in this test, key = "Oc1ccc([C@H]2CNCc3c2ccc(O)c3O)cc1O"
a: inactive

q: # outcome recorded in this test, key = "ClCc1cccc(Cl)c1"
a: inactive

q: # outcome recorded in this test, key = "C[N+](C)(C)CCOC(=O)C(O)(c1ccccc1)c1ccccc1"
a: inactive

q: # outcome recorded in this test, key = "CCOP(=S)(OCC)O/N=C(\C#N)c1ccccc1"
a: inactive

q: # outcome recorded in this test, key = "CCc1cc(OC)c(C[C@H](C)N)cc1OC"
a: inactive

q: # outcome recorded in this test, key = "C[N+]1(CCC(C(N)=O)(c2ccccc2)c2ccccc2)CCCCC1"
a: inactive

q: # outcome recorded in this test, key = CNC(=O)NC(O)C(Cl)(Cl)Cl (stereo unspecified)
a: inactive

q: # outcome recorded in this test, key = "CCCCCCCCCCCC[N+](C)(C)CCOc1ccccc1"
a: active
